Measured AC50 (5-hydroxytryptamine receptor 2A (Homo sapiens))

Before answering, review these 3 worked examples.
Molecule | Recorded value
C=C(c1ccccc1OCc1cccc(Cl)c1)n1ccnc1 [CROCONAZOLE] | 1110 nM
CCC(=O)c1ccc2c(c1)N(CC(C)N(C)C)c1ccccc1S2 (centres undefined) [PROPIOMAZINE] | 23.3 nM
C[C@]12CCC(=O)C=C1CC[C@H]1[C@@H]3CC[C@](O)(C(=O)CO)[C@@]3(C)C[C@H](O)[C@@]12F [FLUDROCORTISONE] | > 10000 nM

// moving on: another record for AC50
### Prompt Could you tell me which AC50 is on file for Cc1cnc(Nc2ccc(OCCN3CCCC3)cc2)nc1Nc1cccc(S(=O)(=O)NC(C)(C)C)c1 [FEDRATINIB] ?
### Response 3120 nM
